Where these numbers come from: PubChem BioAssay AID1159580

# measurement-protocol: chemical genetic growth profiling, strain panel (AID 1159580);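 note: tested at 20 µM; growth read once vehicle control cultures reached saturation at 30 °C; 1 = growth at the plate median or of vehicle wells; lower values mean less growth of the strain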
# condition-parameters: S. cerevisiae deletion strains, growth OD, locus YDR195W, strain ref2
The campaign covered roughly 5,500 compounds. About 2,000 (36%) were called active. Roughly 18% stayed inconclusive and do not appear here. Cut-off read from the data, not from the text of the source: active = normalized growth mostly below about 0.91 (no sharp cut-off); inconclusive = no clear call, values can overlap the other calls; inactive = mostly above about 0.92. Some of the results follow.
Response enum: active, inactive

Before answering, review these 6 worked examples.
compound: Clc1ccc(C(Cn2ccnc2)OCc2ccsc2Cl)c(Cl)c1 (centres undefined)
assigned-label: active
//
compound: C[C@]12CCC3c4ccc(OC(=O)c5ccccc5)cc4CCC3C1CCC2=O (some centres undefined)
assigned-label: inactive
//
compound: Cc1cc(CC(=O)O)n(C)c1C(=O)c1ccc(Cl)cc1
assigned-label: inactive
//
compound: CC(=O)O[C@H]1C[C@@]2(C)[C@@H](C[C@@H](O)C3[C@]2(C)CC[C@H]2[C@H](C)[C@H](O)CC[C@]32C)/C1=C(/CCC=C(C)C)C(=O)O (some centres undefined)
assigned-label: inactive
//
compound: C[C@@H]1CC2C3CCC4=CC(=O)C=C[C@]4(C)[C@@]3(F)[C@@H](O)C[C@]2(C)[C@@]1(O)C(=O)CO (some centres undefined)
assigned-label: inactive
//
compound: COc1ccc(-c2oc3cc(OC)c(OC)c(OC)c3c(=O)c2OC)cc1
assigned-label: inactive

Request: Query: recorded result category for CN(C)C(=O)Oc1ccc[n+](C)c1 in this test
Response: inactive

###

# measurement-protocol: chemical genetic growth profiling, strain panel (AID 1159580);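 note: tested at 20 µM; growth read once vehicle control cultures reached saturation at 30 °C; 1 = growth at the plate median or of vehicle wells; lower values mean less growth of the strain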
# condition-parameters: S. cerevisiae deletion strains, growth OD, locus YJL187C, strain SWE1, active compounds read low
The whole screen tested about 5,500 compounds, of which about 2,000 (36%) were called active. About 18% were inconclusive and are not listed. The list shows a part of the results.
Parameter: normalized growth. Scope: all listed entries.
Respond using a number only.

Request: Quick check: normalized growth of O=C1NN(c2ccccc2)C(=S)Nc2ccccc21 ?
Response: 0.988

Request: normalized growth lookup needed for CCc1cccc(C)c1NC(=O)CC(C)(C)CC(=O)O , thanks.
Response: 0.996

Request: Data request, read-out normalized growth, for Cc1c(C)c(C)c(CSc2nc3ccccc3[nH]2)c(C)c1C
Response: 1.01

###

# measurement-protocol: chemical genetic growth profiling, strain panel (AID 1159580);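 note: tested at 20 µM; growth read once vehicle control cultures reached saturation at 30 °C; 1 = growth at the plate median or of vehicle wells; lower values mean less growth of the strain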
# condition-parameters: S. cerevisiae deletion strains, growth OD, locus YDR162C, strain NBP2
In all, about 5,500 compounds went through this assay and about 2,000 (36%) were called active. About 18% were inconclusive and are not listed. No stated cut-off is given here; in the data, active means normalized growth mostly below about 0.91 (no sharp cut-off); inconclusive means no clear call, values can overlap the other calls; inactive means mostly above about 0.92. The list shows a part of the results.
Outcomes you can answer with include only these: y for active, n for inactive

A selection of reference data follows.
compound: COC1C=CC23c4cc5c(cc4CN(CC2O)[C@@H]3C1)OCO5 (some centres undefined)
assigned-label: n

compound: C=NC(C(=O)NC1C(=O)N2C1SC(C)(C)C2C(=O)O)c1ccccc1 (centres undefined)
assigned-label: n

compound: Clc1ccc(COC(Cn2ccnc2)c2ccc(Cl)cc2Cl)c(Cl)c1 (centres undefined)
assigned-label: y

compound: COC[C@]12CN(C=O)C3[C@@H]4[C@H](OC)C1[C@]3(C1CC3(O)C(OC)C(O)C4(OC(C)=O)C1C3OC(=O)c1ccccc1)[C@@H](OC)C[C@H]2O (some centres undefined)
assigned-label: n

Request: Assay outcome for Clc1ccc(COC(Cn2ccnc2)c2ccc(Cl)cc2Cl)cc1 (centres undefined) : what was it?
Response: y

Request: How did this test come out for COc1ccc(CCC(=O)c2c(O)cc(O[C@@H]3O[C@H](CO)C(O)[C@H](O)C3O[C@@H]3O[C@@H](C)[C@H](O)[C@@H](O)[C@H]3O)cc2O)cc1O (some centres undefined) ?
Response: n

Request: Answer briefly: the call reported for N[C@@H](C(=O)O)[C@@H](O)[C@H](O)[C@H](O)CO in this assay.
Response: n

Request: Called result for CCN1C[C@@]2(COC)C3[C@@H](OC)[C@H]4[C@@H]1[C@]3(C(OC)C[C@H]2O)C1C[C@@]2(O)[C@H](OC(=O)c3ccccc3)C1[C@]4(OC(C)=O)[C@@H](O)[C@@H]2OC (some centres undefined)
Response: n

Request: Test call, this compound: Clc1ccc(CSC(Cn2ccnc2)c2ccc(Cl)cc2Cl)cc1 (centres undefined)
Response: y

###

# measurement-protocol: chemical genetic growth profiling, strain panel (AID 1159580);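 note: tested at 20 µM; growth read once vehicle control cultures reached saturation at 30 °C; 1 = growth at the plate median or of vehicle wells; lower values mean less growth of the strain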
# condition-parameters: S. cerevisiae deletion strains, growth OD, locus YDR318W, strain mcm21, active compounds read low
In all, about 5,500 compounds went through this assay and about 2,000 (36%) were called active. About 18% were inconclusive and are not listed. The list shows a part of the results.
assay-readout: normalized growth
# print the numeric value only

molecule: C[C@]12CCC3c4ccc(OC(=O)c5ccccc5)cc4CCC3C1CCC2=O (stereo not given in full)
normalized growth: 1.02
--
molecule: C=C[C@@]1(C)CC(=O)[C@@]2(O)[C@](C)(O1)[C@@H](OC(C)=O)[C@@H](O)C1C(C)(C)CC[C@H](O)[C@@]12C (stereo not given in full)
normalized growth: 0.986
--
molecule: CCCCCCCCCCCC(=O)OCC(COP(=O)(O)OCC(O)COP(=O)(O)OCC(COC(=O)CCCCCCCCCCC)OC(=O)CCCCCCCCCCC)OC(=O)CCCCCCCCCCC (stereo not given)
normalized growth: 1
--
molecule: CC(=O)O[C@H]1C[C@@H](OC(C)=O)C(C)(C)C2C[C@@H](OC(C)=O)[C@]3(C)C(CC[C@@]4(C)[C@H](c5ccoc5)OC(=O)[C@H]5O[C@]543)[C@]21C (stereo not given in full)
normalized growth: 1.01
--
molecule: CCC(=O)OC1[C@@H]2CC3=C4CC(=O)O[C@@H](c5ccoc5)[C@]4(C)CCC3[C@@](C)(C2=O)[C@@H](CC(=O)OC)C1(C)C (stereo not given in full)
normalized growth: 1.01

Request: Using the record for CCCNC(=O)NS(=O)(=O)c1ccc(Cl)cc1 , report its normalized growth.
Response: 1.01

Request: For the molecule CN1CCC[C@@H]1CCO[C@](C)(c1ccccc1)c1ccc(Cl)cc1 , what normalized growth is on record?
Response: 0.984

Request: Dear colleague, I am looking for the recorded normalized growth of the following molecule: NC(=O)NC1NC(=O)NC1=O (stereo not given)
Response: 0.986

Request: Please look up its normalized growth: CC(=O)O[C@@H]1CC2C(C)(C)[C@H](O)CC[C@]2(C)C2CC[C@@]3(C)[C@H](c4ccoc4)OC(=O)C4OC43[C@@]21C (stereo not given in full)
Response: 0.996

Request: Which normalized growth is listed for CC(=O)N[C@@H](CCC(=O)O)C(=O)O ?
Response: 1.03

Request: Need normalized growth of O=C(O)C1CCCNC1 (stereo not given) , thanks.
Response: 1.03

Request: Which measured normalized growth value corresponds to CC12CCC3C(=CCc4cc(O)ccc43)C1CCC2=O (stereo not given) ?
Response: 0.962

Request: Please look up its normalized growth: O=C(O)CCC1NCC2CC1CN1CCCCC21 (stereo not given)
Response: 1.02

Request: Reported normalized growth for C[C@]12CCC3C(CC[C@H]4C[C@@H](O)CC[C@]34C)C1CC[C@@H]2O (stereo not given in full) : what is it?
Response: 0.972

Request: May I ask what normalized growth has been recorded for CC(=O)C1CC[C@H]2C3CC[C@H]4C[C@H](O)CC[C@]4(C)C3CC[C@]12C (stereo not given in full) ?
Response: 0.995

Request: // lookup normalized growth for CC(=O)O[C@@H]1CC2C(C)(C)[C@@H](O)CC[C@]2(C)C2CC[C@@]3(C)[C@H](c4ccoc4)OC(=O)[C@H]4O[C@]43[C@@]21C (stereo not given in full)
Response: 0.99

Request: GET /values?readout=normalized growth&item= O=C1CCCCC/C=C/CCCCCCCCO1
Response: 0.985

Request: So what's the measured normalized growth for this one? COc1ccc2c(=O)c(OC)c(-c3ccccc3)oc2c1
Response: 0.863

Request: Fill blank: measured normalized growth of the molecule O=c1[nH]c(=O)n(C2C[C@H](O)[C@@H](CO)O2)cc1C(F)(F)F (stereo not given in full) is ____.
Response: 0.987

Request: Give its normalized growth value. Item: CNc1ccc(C(=O)CC(O)CCC(C)C2OC(=O)CC(O)CC(=O)CC(O)CC(O)CC(O)CC(O)CC3(O)CC(O)C(C(=O)OC)C(CC(OC4OC(C)C(O)C(N)C4O)/C=C/C=C/C=C/C=C/C=C/C=C/C=C/C2C)O3)cc1 (stereo not given)
Response: 0.0791

Request: Look at this molecule and give its reported normalized growth. C[C@]12CCC3C(CC[C@H]4C[C@H](O)CC[C@]34C)C1CC[C@@H]2O (stereo not given in full)
Response: 0.948

Request: Given NC1(C(=O)O)CCC1 , state its recorded normalized growth.
Response: 0.963

Request: Look up normalized growth for this molecule: CC(=O)O[C@@H]1CC2C(C)(C)[C@H](O)CC[C@]2(C)C2CC[C@@]3(C)[C@H](c4ccoc4)OC(=O)[C@H]4O[C@]43[C@@]21C (stereo not given in full)
Response: 1.02

Request: Recorded normalized growth for COc1ccc2oc3ccccc3c(=O)c2c1 , please?
Response: 0.862

Request: Fill blank: measured normalized growth of the molecule C[C@]12CCC3c4ccc(O)cc4CCC3C1CCC2=O (stereo not given in full) is ____.
Response: 0.967

Request: Bench note: what normalized growth did CCCn1c(=O)c2[nH]c(C3CCCC3)nc2n(CCC)c1=O show?
Response: 0.964

Request: Bench note: what normalized growth did NC(N)=NCCN1CCCCCCC1 show?
Response: 1.02
